Target: MAP1LC3A 2-121, Q9H492
property.label: selected by phage display

| binder | selected by phage display |
| --- | --- |
| AVQVPESFEHLPPLPE [ATF7IP2, Q5U623] | confidence 4 (active) |
| EWQHLDSAQRTPYRDM [ZNF487, B1APH4] | confidence 2 (active) |
| VPAFEVLEISPQEVSS [MS4A2, Q01362] | confidence 2 (active) |
| VPFTELVVQSITPHQS [BMP2K, Q9NSY1] | confidence 3 (active) |

Prompt line: Query: selected by phage display; subject: TENDDFAILFAPKAAM [ATG2B, Q96BY7]
Response line: confidence 3 (active)

Prompt line: Any idea what its selected by phage display is? The binder is LEDSFAHLQLSGDNTA [RNF146, Q9NTX7]
Response line: confidence 3 (active)

Prompt line: selected by phage display for DGDTLDSDEFAILDAP [ATG2A, Q2TAZ0] ?
Response line: confidence 4 (active)

Prompt line: Name the recorded selected by phage display for SPNREWEVLQPAPHQV [NCOR1, O75376] .
Response line: confidence 3 (active)

Prompt line: Dear colleague, I am looking for the recorded selected by phage display of the following binder: WRDMTTITEDEISKLR [CACTIN, Q8WUQ7]
Response line: confidence 2 (active)
